// values below are reported pIC50
# Target Of Assay: KRAS G12C::SOS1 (Homo sapiens, UniProt Q07889)
# Construct: purchased CISBIO 64KRASG12PEH
# Assay Comment: KRAS G12C::SOS1 protein-protein interaction (PPI) inhibition assay (HTRF)
# Format: binding
# Condition: 8 concentrations from 3 µM, three replicates; read-out: KRAS G12C::SOS1 PPI
pIC50: −log10 of the molar value.

{"columns": ["Record Smiles", "pIC50"],
 "data": [
  ["C[C@@H](NC(=O)c1ccc(=O)n(-c2cncc(-c3cnnn3C)c2)n1)c1cccc(C2(C)CC2)c1F", "< 6.82"],
  ["C[C@@H](NC(=O)c1ccc(=O)n(-c2cncc(-c3cnnn3C)c2)n1)c1cccc(C(C)(F)F)c1F", "6.82 to 7.30"],
  ["C[C@@H](NC(=O)c1cc(F)c(=O)n(-c2cncc(-c3cnnn3C)c2)c1)c1cccc(C(F)(F)F)c1F", "< 6.82"],
  ["C[C@@H](NC(=O)c1ccc(=O)n(-c2cncc(-c3ccnn3C)c2)n1)c1cccc(C(F)(F)F)c1F", "< 6.82"],
  ["[2H]C([2H])([2H])[C@@H](NC(=O)c1ccc(=O)n(-c2cncc(-c3cnnn3C([2H])([2H])[2H])c2)n1)c1cccc(C(F)(F)F)c1F", "6.82 to 7.30"],
  ["C[C@@H](NC(=O)c1ccc(=O)n(-c2cnc(N(C)C)c(-c3cnnn3C)c2)n1)c1cccc(C(F)(F)F)c1F", "6.82 to 7.30"],
  ["[2H]C([2H])([2H])n1nncc1-c1cncc(-n2nc(C(=O)N[C@H](C)c3cc(N)cc(C(F)(F)F)c3)ccc2=O)c1", "> 7.30"],
  ["C[C@@H](NC(=O)c1cc(C2CC2)c(=O)n(-c2cncc(-c3cnnn3C)c2)c1)c1cccc(C(F)(F)F)c1F", "> 7.30"],
  ["C[C@@H](NC(=O)c1ccc(=O)n(-c2cncc(-c3cnnn3C3CCN(C)CC3)c2)n1)c1cccc(C(F)(F)F)c1F", "> 7.30"],
  ["Cc1cc(C(=O)N[C@H](C)c2cccc(C(F)(F)F)c2F)nn(-c2cncc(-c3cnnn3C)c2)c1=O", "> 7.30"],
  ["C[C@@H](NC(=O)c1ccc(=O)n(-c2cncc(-c3cnnn3C3CCN(S(C)(=O)=O)CC3)c2)n1)c1cccc(C(F)(F)F)c1F", "> 7.30"],
  ["Cc1ncc(-n2nc(C(=O)N[C@H](C)c3cccc(C(F)(F)CO)c3C)ccc2=O)cc1-c1cnnn1C", "< 6.82"],
  ["CC(=O)N1CC(n2nncc2-c2cncc(-n3nc(C(=O)N[C@H](C)c4cccc(C(F)(F)F)c4F)ccc3=O)c2)C1", "> 7.30"],
  ["C[C@@H](NC(=O)c1ccc(=O)n(-c2cncc(-c3cnnn3C)n2)c1)c1cccc(C(F)(F)F)c1F", "< 6.82"],
  ["C[C@@H](NC(=O)c1cc(C#N)c(=O)n(-c2cncc(-c3cnnn3C)c2)n1)c1cccc(C(F)(F)F)c1F", "6.82 to 7.30"],
  ["COC(=O)N1CC(n2nncc2-c2cncc(-n3nc(C(=O)N[C@H](C)c4cccc(C(F)(F)F)c4F)ccc3=O)c2)C1", "> 7.30"],
  ["[2H]C([2H])([2H])n1nncc1-c1cncc(-n2nc(C(=O)N[C@H](C)c3cc(N)cc(C(F)F)c3)ccc2=O)c1", "> 7.30"],
  ["CCN1CC(n2nncc2-c2cncc(-n3nc(C(=O)N[C@H](C)c4cccc(C(F)(F)F)c4F)ccc3=O)c2)C1", "> 7.30"],
  ["C[C@@H](NC(=O)c1ccc(=O)n(-c2cncc(-c3cnnn3C3CNC3)c2)n1)c1cccc(C(F)(F)CO)c1F", "> 7.30"],
  ["CCn1nncc1-c1cc(-n2nc(C(=O)N[C@H](C)c3cccc(C(F)(F)F)c3F)ccc2=O)cnc1C", "6.82 to 7.30"],
  ["CC(=O)N1CCC(n2nncc2-c2cncc(-n3nc(C(=O)N[C@H](C)c4cccc(C(F)(F)F)c4F)ccc3=O)c2)CC1", "> 7.30"],
  ["C[C@@H](NC(=O)c1ccc(=O)n(-c2cc(-c3cnnn3C3CC3)cnc2F)c1)c1cccc(C(F)(F)F)c1F", "6.82 to 7.30"],
  ["C[C@@H](NC(=O)c1cc(C#N)c(=O)n(-c2cc(-c3cnnn3C3CC3)cnc2F)n1)c1cccc(C(F)(F)F)c1F", "6.82 to 7.30"],
  ["C[C@@H](NC(=O)c1ccc(=O)n(-c2cncc(-c3cnnn3C3CCC3)c2)n1)c1cccc(C(F)(F)F)c1F", "6.82 to 7.30"],
  ["C[C@@H](NC(=O)c1ccc(=O)n(-c2cncc(-c3cnnn3C)c2)n1)c1cccc(C(F)F)c1F", "> 7.30"],
  ["Cc1cc(C(=O)N[C@H](C)c2cccc(C(F)F)c2F)nn(-c2cncc(-c3cnnn3C)c2)c1=O", "> 7.30"],
  ["CC(C)n1nncc1-c1cncc(-n2nc(C(=O)N[C@H](C)c3cccc(C(F)(F)F)c3F)cc(CO)c2=O)c1", "6.82 to 7.30"]
]}

###

// values below are reported IC50
# Target Of Assay: SOS1 (Homo sapiens)
# Construct: HIS-SOS1cat (160 nM; Cytoskeleton, US); His (N); purchased Cytoskeleton
# Sequence (Q07889 564-1049 limits assumed): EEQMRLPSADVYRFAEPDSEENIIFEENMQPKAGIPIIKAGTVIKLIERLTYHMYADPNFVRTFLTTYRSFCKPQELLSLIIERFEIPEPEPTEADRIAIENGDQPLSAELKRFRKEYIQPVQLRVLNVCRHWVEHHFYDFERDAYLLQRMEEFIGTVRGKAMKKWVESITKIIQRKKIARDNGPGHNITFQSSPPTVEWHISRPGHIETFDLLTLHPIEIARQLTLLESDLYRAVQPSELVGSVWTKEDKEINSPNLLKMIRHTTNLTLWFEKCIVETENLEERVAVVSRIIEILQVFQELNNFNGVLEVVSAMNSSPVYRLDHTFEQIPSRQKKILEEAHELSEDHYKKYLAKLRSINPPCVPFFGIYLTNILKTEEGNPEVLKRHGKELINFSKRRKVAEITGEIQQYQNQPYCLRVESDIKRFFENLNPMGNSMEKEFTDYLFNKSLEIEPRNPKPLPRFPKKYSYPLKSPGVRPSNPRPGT
# Assay Comment: SOS-catalyzed nucleotide exchange assay (HTRF, SOS1-mediated GTP loading of KRAS G12D)
# Type: biochemical
# Method: SOS1 activity was measured by SOS1-mediated GTP loading quantification of KRAS^G12D. GTP loaded KRAS^G12D was detected by HTRF (Homogeneous Time Resolved Fluorescence) using anti-GST terbium (Cisbio, France) as a donor and a fluorescence GTP analogue (EDA-GTP-DY-647P1, [DY-647P1 labeled 2'/3'-O-(2-aminoethyl-carbamoyl)guanosine-5'-triphosphate (Jena bioscience, Germany)]) as an acceptor. […]
Assay Readout: IC50

{"columns": ["Record Smiles", "Target Of Assay", "Recorded Value"],
 "data": [
  ["C[C@@H](NC(=O)c1ccc(=O)n(-c2cncc(-c3cnnn3C)c2)n1)c1cc(N)cc(C(F)F)c1", "SOS1 (Homo sapiens)", "50 to 150 nM"],
  ["C[C@@H](NC(=O)c1ccc(=O)n(-c2cc(-c3cnnn3C3CC3)cnc2F)n1)c1cccc(C(F)(F)CO)c1F", "SOS1 (Homo sapiens)", "< 50 nM"],
  ["C[C@@H](NC(=O)c1ccc(=O)n(-c2cncc(-c3cnnn3[C@@H]3CC3(F)F)c2)n1)c1cccc(C(F)(F)F)c1F", "SOS1 (Homo sapiens)", "50 to 150 nM"],
  ["C[C@@H](NC(=O)c1ccc(=O)n(-c2cncc(-c3cnnn3C3CCNCC3)c2)n1)c1cccc(C(F)(F)F)c1F", "SOS1 (Homo sapiens)", "< 50 nM"],
  ["C[C@@H](NC(=O)c1ccc(=O)n(-c2cncc(-c3cnnn3C)c2)n1)c1cccc(C(F)(F)CO)c1F", "SOS1 (Homo sapiens)", "< 50 nM"],
  ["C[C@@H](NC(=O)c1ccc(=O)n(-c2cncc(-c3cnnn3[C@H]3CC3(F)F)c2)n1)c1cccc(C(F)(F)F)c1F", "SOS1 (Homo sapiens)", "50 to 150 nM"],
  ["C[C@@H](NC(=O)c1cc(C#N)c(=O)n(-c2cncc(-c3cnnn3C)c2)n1)c1cccc(C(F)(F)CO)c1F", "SOS1 (Homo sapiens)", "> 150 nM"]
]}

###

// values below are reported pIC50
# Target Of Assay: KRAS G12C::SOS1 (Homo sapiens)
# Construct: purchased CISBIO 64KRASG12PEH
# Assay Comment: KRAS G12C::SOS1 protein-protein interaction (PPI) inhibition assay (HTRF)
# Type: binding
pIC50: −log10 of the molar value.

{"columns": ["Compound", "Target Of Assay", "pIC50"],
 "data": [
  ["C[C@@H](NC(=O)c1ccc(=O)n(-c2cncc(-c3cnnn3C)c2)n1)c1cc(N)cc(C(F)F)c1 [Example 2]", "KRAS G12C::SOS1 (Homo sapiens)", "6.82 to 7.30"],
  ["C[C@@H](NC(=O)c1ccc(=O)n(-c2cncc(-c3cnnn3[C@@H]3CC3(F)F)c2)n1)c1cccc(C(F)(F)CO)c1F (single isomer, unassigned) [Example 26]", "KRAS G12C::SOS1 (Homo sapiens)", "> 7.30"],
  ["C[C@@H](NC(=O)c1ccc(=O)n(-c2cncc(-c3cnnn3[C@H]3CCNC3)c2)n1)c1cccc(C(F)(F)F)c1F [Example 20-5]", "KRAS G12C::SOS1 (Homo sapiens)", "6.82 to 7.30"],
  ["C[C@@H](NC(=O)c1cc(C#N)c(=O)n(-c2cncc(-c3cnnn3C)c2)n1)c1cccc(C(F)(F)CO)c1F [Example 3]", "KRAS G12C::SOS1 (Homo sapiens)", "< 6.82"]
]}
